Catalogue of compounds with associated pIC50
Target: Cholinesterase (Homo sapiens)
Sequence (P06276 whole entry): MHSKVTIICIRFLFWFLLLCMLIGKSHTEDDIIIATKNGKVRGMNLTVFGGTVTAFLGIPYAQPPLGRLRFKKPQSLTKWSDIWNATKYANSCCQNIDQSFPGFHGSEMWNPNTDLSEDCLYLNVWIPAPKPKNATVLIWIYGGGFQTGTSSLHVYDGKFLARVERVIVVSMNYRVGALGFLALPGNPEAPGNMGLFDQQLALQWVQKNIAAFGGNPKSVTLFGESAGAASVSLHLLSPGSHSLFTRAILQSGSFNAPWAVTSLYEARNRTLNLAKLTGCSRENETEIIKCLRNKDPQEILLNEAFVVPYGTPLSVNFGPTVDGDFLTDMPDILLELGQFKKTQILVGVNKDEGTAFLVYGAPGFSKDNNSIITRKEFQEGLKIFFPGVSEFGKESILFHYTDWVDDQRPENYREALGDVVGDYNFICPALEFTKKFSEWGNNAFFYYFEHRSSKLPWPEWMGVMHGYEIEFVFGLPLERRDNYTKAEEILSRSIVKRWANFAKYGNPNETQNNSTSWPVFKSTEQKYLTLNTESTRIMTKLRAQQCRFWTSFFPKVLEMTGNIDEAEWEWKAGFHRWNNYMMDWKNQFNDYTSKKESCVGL
Experiment: Inhibition of human serum BChE by Ellman's assay
pIC50: −log10 of the molar value.
outcome.measure: pIC50

>  <chemical.string>
CCN(CCCCCCn1c(=O)c2cc3c(=O)n(CCCCCCN(CC)Cc4ccccc4OC)c(=O)c3cc2c1=O)Cc1ccccc1OC

>  <tested.on>
Cholinesterase (Homo sapiens)

>  <meas.value>
5.52

$$$$
>  <chemical.string>
CCN(CCCCCCN1CCN(CCCCCCN(CC)Cc2ccccc2OC)C1=O)Cc1ccccc1OC

>  <tested.on>
Cholinesterase (Homo sapiens)

>  <meas.value>
6.06

$$$$
>  <chemical.string>
CCN(CCCCCCN1C(=O)c2ccc(-c3ccc4c(c3)C(=O)N(CCCCCCN(CC)Cc3ccccc3OC)C4=O)cc2C1=O)Cc1ccccc1OC

>  <tested.on>
Cholinesterase (Homo sapiens)

>  <meas.value>
6.53

$$$$
>  <chemical.string>
CCN(CCCCCC(=O)N1CCN(C(=O)CCCCCN(CC)Cc2ccccc2OC)CC1)Cc1ccccc1OC

>  <tested.on>
Cholinesterase (Homo sapiens)

>  <meas.value>
4.97

$$$$
>  <chemical.string>
CCN(CCCCCC(=O)N[C@H]1CC[C@H](NC(=O)CCCCCN(CC)Cc2ccccc2OC)CC1)Cc1ccccc1OC

>  <tested.on>
Cholinesterase (Homo sapiens)

>  <meas.value>
4.60

$$$$
>  <chemical.string>
CCN(CCCCCC(=O)N[C@H]1CCCC[C@H]1NC(=O)CCCCCN(CC)Cc1ccccc1OC)Cc1ccccc1OC

>  <tested.on>
Cholinesterase (Homo sapiens)

>  <meas.value>
4.51

$$$$
>  <chemical.string>
CCN(CCCCCCN1CC(=O)N(CCCCCCN(CC)Cc2ccccc2OC)CC1=O)Cc1ccccc1OC

>  <tested.on>
Cholinesterase (Homo sapiens)

>  <meas.value>
5.68

$$$$
>  <chemical.string>
CCN(CCCCCCN1C(=O)c2ccc3c4c(ccc(c24)C1=O)C(=O)N(CCCCCCN(CC)Cc1ccccc1OC)C3=O)Cc1ccccc1OC

>  <tested.on>
Cholinesterase (Homo sapiens)

>  <meas.value>
5.72

$$$$
>  <chemical.string>
CCN(CCCCCCN1C(=O)c2cccc3cccc(c23)C1=O)Cc1ccccc1OC

>  <tested.on>
Cholinesterase (Homo sapiens)

>  <meas.value>
6.38

$$$$

###

Biological target: Acetylcholinesterase (Homo sapiens, UniProt P22303)
Sequence (P22303 whole entry): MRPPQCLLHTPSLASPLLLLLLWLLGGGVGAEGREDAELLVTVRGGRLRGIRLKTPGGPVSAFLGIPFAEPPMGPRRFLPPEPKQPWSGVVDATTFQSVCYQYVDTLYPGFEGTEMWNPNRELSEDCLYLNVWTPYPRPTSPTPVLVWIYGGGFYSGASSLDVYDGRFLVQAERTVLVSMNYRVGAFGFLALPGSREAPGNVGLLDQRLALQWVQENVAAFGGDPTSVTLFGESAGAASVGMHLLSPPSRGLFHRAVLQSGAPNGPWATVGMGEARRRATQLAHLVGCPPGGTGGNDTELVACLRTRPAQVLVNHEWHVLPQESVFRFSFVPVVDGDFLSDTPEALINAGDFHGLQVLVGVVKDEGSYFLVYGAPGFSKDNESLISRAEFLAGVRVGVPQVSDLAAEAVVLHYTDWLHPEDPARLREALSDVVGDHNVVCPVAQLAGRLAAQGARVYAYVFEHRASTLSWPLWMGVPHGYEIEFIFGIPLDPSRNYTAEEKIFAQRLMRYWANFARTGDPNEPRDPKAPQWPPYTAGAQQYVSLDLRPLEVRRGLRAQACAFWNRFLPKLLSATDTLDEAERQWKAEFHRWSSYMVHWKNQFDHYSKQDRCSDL
Experiment: Inhibition of human recombinant AChE by Ellman's assay
pIC50: −log10 of the molar value.
pIC50 listing for selected molecules.

>  <molecule>
CCN(CCCCCCN1C(=O)c2ccc3c4c(ccc(c24)C1=O)C(=O)N(CCCCCCN(CC)Cc1ccccc1OC)C3=O)Cc1ccccc1OC

>  <tested.on>
Acetylcholinesterase (Homo sapiens, UniProt P22303)

>  <pIC50>
9.43

$$$$
>  <molecule>
CCN(CCCCCC(=O)N[C@H]1CCCC[C@@H]1NC(=O)CCCCCN(CC)Cc1ccccc1OC)Cc1ccccc1OC (racemic)

>  <tested.on>
Acetylcholinesterase (Homo sapiens, UniProt P22303)

>  <pIC50>
5.26

$$$$
>  <molecule>
CCN(CCCCCCN1C(=O)c2cccc3cccc(c23)C1=O)Cc1ccccc1OC

>  <tested.on>
Acetylcholinesterase (Homo sapiens, UniProt P22303)

>  <pIC50>
7.27

$$$$
>  <molecule>
CCN(CCCCCCN1C(=O)c2ccc(-c3ccc4c(c3)C(=O)N(CCCCCCN(CC)Cc3ccccc3OC)C4=O)cc2C1=O)Cc1ccccc1OC

>  <tested.on>
Acetylcholinesterase (Homo sapiens, UniProt P22303)

>  <pIC50>
7.85

$$$$
>  <molecule>
CCN(CCCCCCN1CCN(CCCCCCN(CC)Cc2ccccc2OC)C1=O)Cc1ccccc1OC

>  <tested.on>
Acetylcholinesterase (Homo sapiens, UniProt P22303)

>  <pIC50>
7.14

$$$$
>  <molecule>
CCN(CCCCCCN1CCN(CCCCCCN(CC)Cc2ccccc2OC)C(=O)C1=O)Cc1ccccc1OC

>  <tested.on>
Acetylcholinesterase (Homo sapiens, UniProt P22303)

>  <pIC50>
7.16

$$$$
>  <molecule>
CCN(CCCCCC(=O)N[C@H]1CC[C@H](NC(=O)CCCCCN(CC)Cc2ccccc2OC)CC1)Cc1ccccc1OC

>  <tested.on>
Acetylcholinesterase (Homo sapiens, UniProt P22303)

>  <pIC50>
5.07

$$$$
>  <molecule>
CCN(CCCCCC(=O)N1Cc2ccc3c4c(ccc(c24)C1)CN(C(=O)CCCCCN(CC)Cc1ccccc1OC)C3)Cc1ccccc1OC

>  <tested.on>
Acetylcholinesterase (Homo sapiens, UniProt P22303)

>  <pIC50>
8.32

$$$$
>  <molecule>
CCN(CCCCCCn1c(=O)c2cc3c(=O)n(CCCCCCN(CC)Cc4ccccc4OC)c(=O)c3cc2c1=O)Cc1ccccc1OC

>  <tested.on>
Acetylcholinesterase (Homo sapiens, UniProt P22303)

>  <pIC50>
8.11

$$$$
>  <molecule>
CCN(CCCCCC(=O)N[C@H]1CCCC[C@H]1NC(=O)CCCCCN(CC)Cc1ccccc1OC)Cc1ccccc1OC

>  <tested.on>
Acetylcholinesterase (Homo sapiens, UniProt P22303)

>  <pIC50>
5.38

$$$$
>  <molecule>
CCN(CCCCCCN1CC(=O)N(CCCCCCN(CC)Cc2ccccc2OC)CC1=O)Cc1ccccc1OC

>  <tested.on>
Acetylcholinesterase (Homo sapiens, UniProt P22303)

>  <pIC50>
7.80

$$$$
>  <molecule>
CCN(CCCCCCn1c(=O)c(=O)n(CCCCCCN(CC)Cc2ccccc2OC)c2ccccc21)Cc1ccccc1OC

>  <tested.on>
Acetylcholinesterase (Homo sapiens, UniProt P22303)

>  <pIC50>
8.85

$$$$
>  <molecule>
CCN(CCCCCC(=O)N1CCN(C(=O)CCCCCN(CC)Cc2ccccc2OC)CC1)Cc1ccccc1OC

>  <tested.on>
Acetylcholinesterase (Homo sapiens, UniProt P22303)

>  <pIC50>
7.59

$$$$
